- Tested on: CCRIS mutagenicity, Ames/micronucleus/aberration tests
- PROTOCOL_DESCRIPTION: CCRIS mutagenicity studies
- STATED_CONDITIONS: Test System: AMES SALMONELLA TYPHIMURIUM; Strain/Indicator: TA1537; Metabolic Activation: NONE; Method: STANDARD PLATE
Activity calls are given as the source filed them. No rule for the calls is given here.
Give one outcome, nothing more. List: active, inactive

- COMPOUND: "COc1cc(NS(C)(=O)=O)ccc1Nc1c2ccccc2nc2cc(N=[N+]=[N-])ccc12"
  EXPERIMENTAL_TARGET: "CCRIS mutagenicity, Ames/micronucleus/aberration tests"
  CLASSIFICATION: "active"
- COMPOUND: "CN(C)CCO"
  EXPERIMENTAL_TARGET: "CCRIS mutagenicity, Ames/micronucleus/aberration tests"
  CLASSIFICATION: "inactive"
- COMPOUND: "Cl/C=C/C[N+]12CN3CN(CN(C3)C1)C2"
  EXPERIMENTAL_TARGET: "CCRIS mutagenicity, Ames/micronucleus/aberration tests"
  CLASSIFICATION: "inactive"
- COMPOUND: "CC(C)Oc1ccc2c(=O)c(-c3ccccc3)coc2c1"
  EXPERIMENTAL_TARGET: "CCRIS mutagenicity, Ames/micronucleus/aberration tests"
  CLASSIFICATION: "inactive"

Query: Hi team, can someone confirm the assay call for CCc1ccco1 ?
Reply: inactive

Query: Could you please tell me the result logged for C=C1CC[C@H]2C[C@@H]1C2(C)C in this assay?
Reply: inactive

Query: Check the results log: what was the call for c1ccc2cnncc2c1 ?
Reply: inactive

Query: Which outcome was entered for the compound O=C(CCl)NCO in this test?
Reply: inactive

Query: Kindly provide the recorded test outcome for the following compound: [Cr]
Reply: inactive

Query: recorded result category for CCOP(=O)(OCC)O/C(=C\Cl)c1ccc(Cl)cc1Cl in this test
Reply: inactive

Query: Which outcome was assigned to C1CCC2OCCOCCOCCOC3CCCCC3OCCOCCOCCOC2C1 (centres undefined) in this test?
Reply: inactive

Reference for the values: PubChem BioAssay AID1259407
